# Tested Target: EGFR L858R (Homo sapiens, UniProt P00533, L858R)
# Construct: purchased SignalChem E10-122BG
# Sequence (P00533 25-1210 L858R): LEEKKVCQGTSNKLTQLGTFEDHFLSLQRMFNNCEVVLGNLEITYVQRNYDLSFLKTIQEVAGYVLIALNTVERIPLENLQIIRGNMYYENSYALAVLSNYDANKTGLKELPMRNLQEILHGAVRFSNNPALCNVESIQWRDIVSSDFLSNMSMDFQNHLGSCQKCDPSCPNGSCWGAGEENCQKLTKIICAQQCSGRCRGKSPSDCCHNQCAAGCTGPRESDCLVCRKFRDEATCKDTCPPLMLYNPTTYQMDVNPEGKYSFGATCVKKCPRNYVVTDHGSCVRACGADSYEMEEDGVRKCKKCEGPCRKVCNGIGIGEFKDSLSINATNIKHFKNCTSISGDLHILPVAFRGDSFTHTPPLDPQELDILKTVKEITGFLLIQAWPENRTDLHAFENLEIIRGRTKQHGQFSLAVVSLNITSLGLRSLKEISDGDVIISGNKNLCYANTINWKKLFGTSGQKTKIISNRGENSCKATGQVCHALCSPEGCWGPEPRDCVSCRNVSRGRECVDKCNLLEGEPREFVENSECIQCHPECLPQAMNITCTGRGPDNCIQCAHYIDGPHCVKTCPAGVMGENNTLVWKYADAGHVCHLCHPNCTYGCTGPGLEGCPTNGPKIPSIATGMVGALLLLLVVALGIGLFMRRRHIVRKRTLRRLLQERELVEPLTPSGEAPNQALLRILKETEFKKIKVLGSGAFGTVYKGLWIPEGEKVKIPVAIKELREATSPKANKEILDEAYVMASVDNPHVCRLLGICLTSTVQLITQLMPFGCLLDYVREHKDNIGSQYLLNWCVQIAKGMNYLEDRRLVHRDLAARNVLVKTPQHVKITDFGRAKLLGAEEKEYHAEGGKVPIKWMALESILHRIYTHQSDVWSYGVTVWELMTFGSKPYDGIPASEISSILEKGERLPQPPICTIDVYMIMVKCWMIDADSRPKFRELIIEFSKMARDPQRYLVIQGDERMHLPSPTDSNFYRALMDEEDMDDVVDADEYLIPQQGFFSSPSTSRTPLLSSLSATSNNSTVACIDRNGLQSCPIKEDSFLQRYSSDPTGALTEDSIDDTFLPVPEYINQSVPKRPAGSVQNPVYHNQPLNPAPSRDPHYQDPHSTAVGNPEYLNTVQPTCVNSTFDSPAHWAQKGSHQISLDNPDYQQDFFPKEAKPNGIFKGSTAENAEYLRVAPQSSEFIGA
# Assay Overview: Biochemical EGFR inhibition assay (Caliper mobility shift), EGFR L858R
# Measurement Setup: read-out: Enz EGFR_L858R IC50
pIC50: −log10 of the molar value.
Reported Metric: pIC50

These solved cases illustrate the format of a correct answer.
[
  {
    "Smi": "C[C@@H](Oc1cc(-c2cnn(C)c2)cc2ncnc(Nc3c(F)cc4ncccc4c3F)c12)C1COC1",
    "Reported Measurement": "> 8.00"
  },
  {
    "Smi": "C[C@H](CN(C)C)Oc1cc(-c2cnn(C)c2)cc2ncnc(Nc3ccc4nnccc4c3F)c12",
    "Reported Measurement": "< 7.30"
  },
  {
    "Smi": "C[C@H](CN(C)C)Oc1cc(N2C3COCC2C3)cc2ncnc(Nc3ccc4ncccc4c3F)c12",
    "Reported Measurement": "< 7.30"
  }
]

Okay, now this molecule:
Exercise: # get_value(readout='pIC50', item= C[C@@H](Oc1cc(N2CC[C@H](C(C)(C)O)C2)cc2ncnc(Nc3ccc4ncccc4c3F)c12)C1COC1 )
Solution: > 8.00
